Reported values of IC50 for individual entries
# study.target: CYP3A4 (Homo sapiens, UniProt P08684)
# Construct: 0.1 mg/mL protein human liver microsomes (BD Gentest); tissue BD Gentest; host or cells: human liver microsomes
# Sequence (P08684 whole entry): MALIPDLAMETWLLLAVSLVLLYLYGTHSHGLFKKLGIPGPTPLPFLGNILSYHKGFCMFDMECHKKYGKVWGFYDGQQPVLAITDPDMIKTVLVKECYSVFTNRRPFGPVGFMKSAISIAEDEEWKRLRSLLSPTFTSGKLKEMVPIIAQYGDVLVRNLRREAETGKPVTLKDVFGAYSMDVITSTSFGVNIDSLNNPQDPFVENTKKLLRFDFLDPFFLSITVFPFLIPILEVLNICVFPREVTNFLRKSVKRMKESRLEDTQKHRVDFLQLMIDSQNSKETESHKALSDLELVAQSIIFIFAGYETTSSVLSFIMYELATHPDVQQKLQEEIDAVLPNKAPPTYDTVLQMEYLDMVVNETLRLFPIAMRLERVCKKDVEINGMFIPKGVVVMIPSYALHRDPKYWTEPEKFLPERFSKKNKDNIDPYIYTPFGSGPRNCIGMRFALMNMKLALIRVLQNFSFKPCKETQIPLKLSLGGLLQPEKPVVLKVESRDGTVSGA
# procedure.text: Cocktail assay for CYPs in human liver microsomes: CYP3A4 (midazolam 1′-hydroxylation)
# Assay type: biochemical
# cond: human liver microsomes 0.1 mg/mL, 2 μM midazolam, 10 min at 37° C., 6 concentrations up to 10 μM; read-out: IC50 (nM) CYP3A4

[
  {
    "compound": "C[C@H](c1ccc(F)cc1)n1cncc1CN1CCN(Cc2cn3ccccc3n2)C(=O)C1 [Compound 63]",
    "measurement.unit": "nM",
    "IC50": 46
  },
  {
    "compound": "C[C@H](c1ccc(F)cc1)n1cncc1CN1CCN(C(=O)c2ccccc2)C(c2ccccc2)C1 (single isomer, unassigned) [Compound 50b]",
    "measurement.unit": "nM",
    "IC50": 5
  },
  {
    "compound": "C[C@H](c1ccc(C#N)cc1)n1cncc1CN1CCN(c2nc3ccccc3[nH]2)CC1 [Compound 39]",
    "measurement.unit": "nM",
    "IC50": 23
  },
  {
    "compound": "C[C@H](c1ccc(F)cc1)n1cncc1CN1CCC(C)(C#N)CC1 [Compound 3]",
    "measurement.unit": "nM",
    "IC50": 37
  }
]

====

Entries and their IC50
# study.target: CYP2C9 (Homo sapiens)
# Construct: 0.1 mg/mL protein human liver microsomes (BD Gentest); tissue BD Gentest; host or cells: human liver microsomes
# Sequence (P11712 whole entry): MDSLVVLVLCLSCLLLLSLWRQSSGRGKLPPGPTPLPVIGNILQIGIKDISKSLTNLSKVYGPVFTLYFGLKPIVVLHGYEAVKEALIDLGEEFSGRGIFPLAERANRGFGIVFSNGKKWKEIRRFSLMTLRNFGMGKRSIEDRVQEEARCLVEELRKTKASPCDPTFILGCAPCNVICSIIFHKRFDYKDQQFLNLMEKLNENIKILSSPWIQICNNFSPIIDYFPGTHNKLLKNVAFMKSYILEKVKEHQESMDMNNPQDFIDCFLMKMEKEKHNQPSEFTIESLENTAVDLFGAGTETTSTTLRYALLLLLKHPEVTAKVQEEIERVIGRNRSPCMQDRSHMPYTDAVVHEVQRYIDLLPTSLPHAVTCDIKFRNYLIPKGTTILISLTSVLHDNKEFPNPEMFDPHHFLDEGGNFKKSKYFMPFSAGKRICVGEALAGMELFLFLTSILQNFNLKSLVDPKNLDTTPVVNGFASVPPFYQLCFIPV
# procedure.text: Cocktail assay for CYPs in human liver microsomes: CYP2C9 (diclofenac 4′-hydroxylation)
# Type: biochemical
# cond: human liver microsomes 0.1 mg/mL, 5 μM diclofenac, 10 min at 37° C., 6 concentrations up to 10 μM; read-out: IC50 (nM) CYP2C9
value.type: IC50 (nM)

[
  {
    "compound": "CCS(=O)(=O)CCc1cnc(N2CCN(Cc3cncn3[C@H](C)Cc3ccc(F)cc3)CC2)s1",
    "study.target": "CYP2C9 (Homo sapiens)",
    "value.modifier": "=",
    "quantitative.readout": 2700
  },
  {
    "compound": "C[C@H](c1ccc(F)cc1)n1cncc1CN1CCN(C(=O)C2CCOCC2)C(c2ccccc2)C1 (single isomer, unassigned) [Compound 52b]",
    "study.target": "CYP2C9 (Homo sapiens)",
    "value.modifier": "=",
    "quantitative.readout": 6200
  },
  {
    "compound": "CC(C)c1noc(C2(C)CCN(Cc3cncn3[C@H](C)c3ccc(F)cc3)CC2)n1",
    "study.target": "CYP2C9 (Homo sapiens)",
    "value.modifier": "=",
    "quantitative.readout": 2880
  },
  {
    "compound": "CC(c1ccc(S(C)(=O)=O)cc1)n1cncc1CN1CCN(c2nc3ccccc3o2)CC1 (stereo not shown)",
    "study.target": "CYP2C9 (Homo sapiens)",
    "value.modifier": "≥",
    "quantitative.readout": 10000
  }
]

====

Measured IC50, listed per entry.
# study.target: CYP2C19 (Homo sapiens, UniProt P33261)
# Construct: 0.1 mg/mL protein human liver microsomes (BD Gentest); tissue BD Gentest; host or cells: human liver microsomes
# Sequence (P33261 whole entry): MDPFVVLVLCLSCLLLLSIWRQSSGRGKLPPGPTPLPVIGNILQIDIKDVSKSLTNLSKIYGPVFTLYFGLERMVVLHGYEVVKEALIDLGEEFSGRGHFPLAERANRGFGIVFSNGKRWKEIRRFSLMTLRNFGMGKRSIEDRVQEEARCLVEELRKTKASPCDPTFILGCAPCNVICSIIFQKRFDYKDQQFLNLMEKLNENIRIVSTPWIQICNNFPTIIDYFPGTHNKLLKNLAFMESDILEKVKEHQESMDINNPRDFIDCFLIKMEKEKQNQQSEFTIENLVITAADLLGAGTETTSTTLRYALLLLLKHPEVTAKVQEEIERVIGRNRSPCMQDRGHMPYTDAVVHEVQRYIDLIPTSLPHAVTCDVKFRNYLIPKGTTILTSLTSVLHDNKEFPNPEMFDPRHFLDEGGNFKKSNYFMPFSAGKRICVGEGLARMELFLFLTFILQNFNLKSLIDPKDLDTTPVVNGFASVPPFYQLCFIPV
# procedure.text: Cocktail assay for CYPs in human liver microsomes: CYP2C19 (mephenytoin 4′-hydroxylation)
# Assay type: biochemical
# cond: human liver microsomes 0.1 mg/mL, 30 μM mephenytoin, 10 min at 37° C., 6 concentrations up to 10 μM; read-out: IC50 (nM) CYP2C19

[
  {
    "compound": "CC(C)CC1(C#N)CCN(Cc2cncn2[C@H](C)c2ccc(F)cc2)CC1",
    "measurement.unit": "nM",
    "value.modifier": "=",
    "IC50": 3250
  },
  {
    "compound": "Fc1ccc(CCn2cncc2CN2CCN(c3nc4ccccc4o3)CC2)cc1",
    "measurement.unit": "nM",
    "value.modifier": "=",
    "IC50": 5380
  },
  {
    "compound": "CC(c1ccccc1-c1ccc(F)cc1)n1cncc1CN1CCN(C(=O)c2ccccc2)CC1 (centres unmarked)",
    "measurement.unit": "nM",
    "value.modifier": "=",
    "IC50": 3360
  },
  {
    "compound": "CCS(=O)(=O)CCc1cnc(N2CCN(Cc3cncn3[C@H](C)c3ccc(Cl)cc3)CC2)s1",
    "measurement.unit": "nM",
    "value.modifier": "=",
    "IC50": 2400
  },
  {
    "compound": "CC1CN(Cc2cncn2C(C)C2CCOCC2)CC(C)N1C(=O)C1(C)CC1 (centres unmarked)",
    "measurement.unit": "nM",
    "value.modifier": ">",
    "IC50": 10000
  },
  {
    "compound": "CC(C1CCOCC1)n1cncc1CN1CCN(c2nc3ccc(F)c(F)c3o2)CC1 (centres unmarked)",
    "measurement.unit": "nM",
    "value.modifier": ">",
    "IC50": 10000
  },
  {
    "compound": "C[C@H](c1ccc(C#N)cc1)n1cncc1CN1CCN(c2nc3ccccc3[nH]2)CC1",
    "measurement.unit": "nM",
    "value.modifier": ">",
    "IC50": 10000
  },
  {
    "compound": "CCS(=O)(=O)CCc1cnc(N2CCN(Cc3cncn3[C@H](C)Cc3ccc(F)cc3)CC2)s1",
    "measurement.unit": "nM",
    "value.modifier": "=",
    "IC50": 2230
  },
  {
    "compound": "CC(=O)N1CCN(Cc2cncn2C(C)c2ccccc2-c2ccc(F)cc2)CC1 (centres unmarked)",
    "measurement.unit": "nM",
    "value.modifier": ">",
    "IC50": 10000
  },
  {
    "compound": "C[C@H](c1ccc(C#N)cc1)n1cncc1CN1CCN(c2ccccc2)C(C(=O)N2CCOCC2)C1 (some centres unmarked)",
    "measurement.unit": "nM",
    "value.modifier": ">",
    "IC50": 10000
  },
  {
    "compound": "C[C@H](c1ccc(F)cc1)n1cncc1CN1CCC(C)(C#N)CC1",
    "measurement.unit": "nM",
    "value.modifier": ">",
    "IC50": 10000
  },
  {
    "compound": "C[C@H](c1ccc(C#N)cc1)n1cncc1CN1CCN(c2ccccc2)C(C(=O)NC(C)(C)C)C1 (some centres unmarked)",
    "measurement.unit": "nM",
    "value.modifier": "=",
    "IC50": 5840
  },
  {
    "compound": "C[C@H](c1ccc(C#N)cc1)n1cncc1CN1CCC2(CC1)C(=O)NCN2c1ccccc1",
    "measurement.unit": "nM",
    "value.modifier": "=",
    "IC50": 2420
  },
  {
    "compound": "c1ccc(CCn2cncc2CN2CCN(c3nc4ccccc4o3)CC2)nc1",
    "measurement.unit": "nM",
    "value.modifier": "≥",
    "IC50": 10000
  },
  {
    "compound": "C[C@H](c1ccc(C#N)cc1)n1cncc1CN1CCN(c2ccccc2)C(C(=O)N2CCCCC2)C1 (single isomer, unassigned) [Compound 45a]",
    "measurement.unit": "nM",
    "value.modifier": "=",
    "IC50": 5500
  },
  {
    "compound": "CC(C)OCCn1cncc1CN1CCN(c2nc3ccccc3o2)CC1",
    "measurement.unit": "nM",
    "value.modifier": ">",
    "IC50": 10000
  },
  {
    "compound": "C[C@H](c1ccc(F)cc1)n1cncc1CN1CCN(c2nc3ccccc3o2)CC1",
    "measurement.unit": "nM",
    "value.modifier": "=",
    "IC50": 3160
  }
]
